Task for the reader: assign each of the following compounds its reported collision cross section in nitrogen.
Protocol text: collision cross section in nitrogen (drift tube, single-field); higher = larger gas-phase ion size;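 further: chemical standards at 10 µM analysed by drift tube IMS-QTOF MS in about 3.95 torr nitrogen, mean of duplicate injections differing ≤1%, mass error below 10 ppm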
Condition notes: ion type: [M+H]; ion source: ESI; ion mode: Positive
Where a name gives a salt, the structure may show the parent alone.
Write it as a number; the unit Å² goes unstated.

Which collision cross section in nitrogen value is on record for CCc1nc(C)c[nH]1 ? 121.2

Follow-up entry: Cn1c(=O)c2[nH]cnc2n(C)c1=O 137.3

Same read-out for COc1ccc(CCN2CCC(Nc3nc4ccccc4n3Cc3ccc(F)cc3)CC2)cc1 ? 210.8

Record: CN(C)c1ccc(C=O)cc1 129

Also CCN(CC)CCOC(=O)c1ccc(N)cc1 [Procaine hydrochloride] ? 157.1

For CCOC(=O)CN[C@@H](C(=O)N1CC[C@H]1C(=O)NCc1ccc(/C(N)=N/O)cc1)C1CCCCC1 then? 208.6

And the next one, CN(C)C(=O)NC1(c2ccccc2)CCN(CC[C@@]2(c3ccc(F)c(F)c3)CN(C(=O)c3ccccc3)CCO2)CC1 ? 241.6

// next record Cc1nc(-c2ccc3c(c2)CCN(CCC2CCC(NC(=O)/C=C/c4ccc(F)cc4)CC2)CC3)no1 (centres undefined) 224.8

Check CCCOC(=O)NCCCN(C)C [Propamocarb hydrochloride] too. 143.4

Again, but for Cc1nc(N(C)C)nc(OC(=O)N(C)C)c1C 156.4

Here is the next compound: COC(=O)Nc1nc2cc(Sc3ccccc3)ccc2[nH]1 174.6

Same read-out for CC(=O)S[C@H](C(=O)N[C@H]1Cc2ccccc2[C@H]2CCC[C@@H](C(=O)O)N2C1=O)C(C)C ? 194.9

And COc1ccc(N)cc1 ? 133.2

Field entry: O=C(O)c1cccnc1 124.2

Would you mind doing CCCCCCCCCCCC(=O)NCCCN(C)C [N-[3-(Dimethylamino)propyl]dodecanamide] as well? 185.2

Okay, and CCN(CCC#N)c1ccccc1 [3-[Ethyl(phenyl)amino]propanenitrile] ? 139.3

Lookup CC(C)c1ccc(C(=O)N=C(N)N)cc1S(C)(=O)=O [Cariporide mesylate] 173.6

Next up: CSc1ccc(Oc2ccc(S(N)(=O)=O)cc2CN(C)C)cc1C 195.7

COc1cc(OC)c2ccc(=O)oc2c1 ? 139.6
